# testName: Inhibitory concentration againstHuman Karpas 299 Anaplastic Large Cell Lymphoma (CD30+) at 96th hour; n=9
# Format: functional, Homo sapiens

[
  {
    "compound": "COc1ccc(/C=C/C(=O)N2CC(CCl)c3c2cc(N)c2ccccc32)cc1 (stereo unspecified)",
    "IC50": "1.17 nM"
  }
]
